Molecular target: T1, cynoNectin4-mFc (cyno, UniProt A0A2K5WES1 32-349)
T1 construct: Immobilized on the SPR chip; also called cyanoNectin4; not shown: mFc (mouse Fc)
T1 sequence: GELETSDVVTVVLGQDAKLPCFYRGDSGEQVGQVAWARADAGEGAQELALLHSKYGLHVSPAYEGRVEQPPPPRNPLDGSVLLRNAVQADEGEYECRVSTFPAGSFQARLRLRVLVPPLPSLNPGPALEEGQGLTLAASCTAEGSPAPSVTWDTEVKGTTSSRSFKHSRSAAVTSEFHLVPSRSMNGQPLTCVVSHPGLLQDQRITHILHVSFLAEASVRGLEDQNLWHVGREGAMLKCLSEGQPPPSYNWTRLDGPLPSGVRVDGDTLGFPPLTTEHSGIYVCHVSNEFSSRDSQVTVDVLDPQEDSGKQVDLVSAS
Assay: SPR, cynoNectin4-mFc immobilized, pH 6.0
This section presents binders with their documented koff values.
Hey, just the number and the unit after it is fine.

binder: BAP-143-06-24-16 (antibody, V domains shown, Used as a conjugate with a linker payload (CAB ADC)) VH: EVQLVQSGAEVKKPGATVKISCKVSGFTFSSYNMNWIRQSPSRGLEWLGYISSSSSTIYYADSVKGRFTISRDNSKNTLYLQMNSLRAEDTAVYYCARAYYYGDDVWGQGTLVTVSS VL: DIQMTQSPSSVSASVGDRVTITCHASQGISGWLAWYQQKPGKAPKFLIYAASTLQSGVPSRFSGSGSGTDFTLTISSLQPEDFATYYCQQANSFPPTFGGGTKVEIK
measuredValue: 0.000579 s⁻¹

Entry BAP-143-00-01 (antibody, V domains shown, Used as a conjugate with a linker payload (CAB ADC)) VH: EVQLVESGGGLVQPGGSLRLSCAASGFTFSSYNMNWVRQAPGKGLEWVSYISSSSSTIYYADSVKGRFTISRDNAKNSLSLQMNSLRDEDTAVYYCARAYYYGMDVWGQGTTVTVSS VL: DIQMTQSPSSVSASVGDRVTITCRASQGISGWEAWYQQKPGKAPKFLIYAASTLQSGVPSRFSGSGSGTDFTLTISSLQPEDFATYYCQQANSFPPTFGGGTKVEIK : reported koff = ?
0.00142 s⁻¹

# input binder: BAP-143-07-03-12 (antibody, V domains shown, Used as a conjugate with a linker payload (CAB ADC)) VH: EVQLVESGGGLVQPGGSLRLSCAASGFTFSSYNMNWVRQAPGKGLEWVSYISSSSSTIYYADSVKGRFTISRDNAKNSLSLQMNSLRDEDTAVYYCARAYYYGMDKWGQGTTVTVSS VL: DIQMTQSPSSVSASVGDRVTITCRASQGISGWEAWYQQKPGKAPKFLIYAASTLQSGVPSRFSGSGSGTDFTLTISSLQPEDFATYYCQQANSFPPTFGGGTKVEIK ; wanted: its koff
0.00113 s⁻¹
